Attribution: patent US9994518B2

What pEC50 was measured for each of the following?
# Measurement Target: α7 nAChR (rat α7/CHO cells) (Rattus norvegicus, UniProt Q05941)
# Sequence (Q05941 23-502): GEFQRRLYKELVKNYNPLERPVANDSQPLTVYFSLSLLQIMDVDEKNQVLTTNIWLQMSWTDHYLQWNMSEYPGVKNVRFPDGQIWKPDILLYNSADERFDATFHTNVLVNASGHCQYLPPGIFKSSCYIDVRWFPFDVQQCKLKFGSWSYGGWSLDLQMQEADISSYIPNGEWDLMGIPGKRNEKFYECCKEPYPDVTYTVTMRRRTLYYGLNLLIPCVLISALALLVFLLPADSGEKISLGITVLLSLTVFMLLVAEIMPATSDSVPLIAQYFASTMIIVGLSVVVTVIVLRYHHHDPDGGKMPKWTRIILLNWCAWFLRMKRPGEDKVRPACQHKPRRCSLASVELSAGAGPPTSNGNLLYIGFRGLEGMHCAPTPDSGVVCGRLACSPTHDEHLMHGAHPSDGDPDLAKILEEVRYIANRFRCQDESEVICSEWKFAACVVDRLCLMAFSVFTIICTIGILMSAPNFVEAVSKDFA
# Assay Text: Evaluation of modulators of α7 nAChRs using the IonFlux HT automated patch clamp system (potentiation of EC20 ACh-evoked currents)
# Condition Parameters: percent potentiation of ACh (EC20, approx. 60 μM) response in α7/CHO cells; 6-point dose response 0.03-10 μM; whole cell patch clamp
# Description: Evaluation of Modulators of α7 nAChRs Using the IonFlux^HT Automated Patch Clamp System […] 2×T175 flasks of α7/CHO cells (˜60-70% confluent) were washed twice with PBS and trypsinized (2 ml) for 3.5 minutes at 37° C./5% CO2. Cells were collected in F-12K complete media, counted and the number required for the assay was calculated, for example, 2×10^6 cells in a final volume of 670 μl of external solution were required to load one zone (one quarter) of an IonFlux^HT assay plate. […]
Answers are plain numbers, as −log10 of the molar value.

// solved cases for pEC50 follow
Cc1ccc(OC[C@@H]2[C@@H](c3ccc(S(N)(=O)=O)cc3)C2(C)C)cn1 (single isomer, unassigned) :: 5.40
N#Cc1cc(F)ccc1OC[C@@H]1C[C@H]1c1ccc(S(N)(=O)=O)cc1 (single isomer, unassigned) :: 5.22
CC1(C)[C@H](COc2cc(F)ccc2OC(F)F)[C@H]1c1ccc(S(N)(=O)=O)cc1 (single isomer, unassigned) :: 6.13

Record pEC50 for all entries; do not skip any.
1. Cc1ccc(F)cc1OC[C@H]1[C@H](c2ccc(NS(N)(=O)=O)cc2)C1(C)C (single isomer, unassigned)
2. COc1cc(Cl)ccc1OC[C@H]1[C@H](c2ccc(NS(N)(=O)=O)cc2)C1(C)C (single isomer, unassigned)
3. COc1ccc(F)cc1OC[C@H]1[C@H](c2ccc(S(N)(=O)=O)cc2)C1(C)C (single isomer, unassigned)
4. COc1ccc(Cl)cc1CC[C@@H]1[C@@H](c2ccc(S(N)(=O)=O)cc2)C12CCCC2 (single isomer, unassigned)
5. COc1cc(F)ccc1OC[C@H]1[C@H](c2ccc(S(N)(=O)=O)cc2)C1(C)C (single isomer, unassigned)
6. COc1ccc(OC[C@H]2[C@H](c3ccc(S(N)(=O)=O)cc3)C2(C)C)c(OC)n1 (single isomer, unassigned)
7. COc1ccc(Cl)cc1OC[C@H]1C[C@@H]1c1ccc(S(N)(=O)=O)cc1 (single isomer, unassigned)

**A:**
1: 5.76; 2: 6.26; 3: 6.79; 4: 7.19; 5: 5.60; 6: 6.22; 7: 5.43

Record pEC50 for all entries; do not skip any.
1. COc1ccc(Cl)cc1SC[C@H]1[C@H](c2ccc(S(N)(=O)=O)cc2)C1(C)C (single isomer, unassigned)
2. Cc1ccc(OC[C@H]2[C@H](c3ccc(NS(N)(=O)=O)cc3)C2(C)C)cn1 (single isomer, unassigned)
3. Cc1cc(F)ccc1OC[C@H]1[C@H](c2ccc(S(N)(=O)=O)cc2)C1(C)C (single isomer, unassigned)

**A:**
6.90
5.64
6.70

###

# Measurement Target: α7 nAChR (rat α7/CHO cells) (Rattus norvegicus, UniProt Q05941)
# Construct: expressed in transfected cells; host or cells: CHO cells (α7/CHO)
# Assay Text: Evaluation of modulators of α7 nAChRs using the IonFlux HT automated patch clamp system (potentiation of EC20 ACh-evoked currents)
# Type: cell-based
# Condition Parameters: percent potentiation of ACh (EC20, approx. 60 μM) response in α7/CHO cells; 6-point dose response 0.03-10 μM; whole cell patch clamp
Property Measured: pEC50
Answers are plain numbers, as −log10 of the molar value.

// solved cases for pEC50 follow
Cc1ncccc1OC[C@H]1[C@H](c2ccc(S(N)(=O)=O)cc2)C1(C)C (single isomer, unassigned) [Exp. 34] :: 5.79
COc1ccc(F)cc1OC[C@@H]1[C@@H](c2ccc(S(N)(=O)=O)cc2)C1(C)C (single isomer, unassigned) [Exp. 43] :: 5.81
COc1cc(F)ccc1OC[C@@H]1[C@@H](c2ccc(S(N)(=O)=O)cc2)C1(C)C (single isomer, unassigned) [Exp. 29] :: 5.90
CC1(C)[C@H](COc2ccccc2OC(F)F)[C@H]1c1ccc(S(N)(=O)=O)cc1 (single isomer, unassigned) [Exp. 42] :: 6.20
Cc1ncccc1OC[C@H]1[C@H](c2ccc(NS(N)(=O)=O)cc2)C1(C)C (single isomer, unassigned) [Exp. 20] :: 5.48

Moving on to another molecule below.
**Q:** Give measured pEC50 for COc1ccc(Cl)cc1SC[C@@H]1[C@@H](c2ccc(S(N)(=O)=O)cc2)C1(C)C (single isomer, unassigned) [Exp. 14] (α7 nAChR (rat α7/CHO cells) (Rattus norvegicus, UniProt Q05941)).
**A:** 6.34

###

# Measurement Target: α7 nAChR (rat α7/CHO cells) (Rattus norvegicus, UniProt Q05941)
# Assay Text: Evaluation of modulators of α7 nAChRs using the IonFlux HT automated patch clamp system (potentiation of EC20 ACh-evoked currents)
# Condition Parameters: percent potentiation of ACh (EC20, approx. 60 μM) response in α7/CHO cells; 6-point dose response 0.03-10 μM; whole cell patch clamp
What EC50 was measured for each of the following?
One number for each entry, in nM.

CC1(C)[C@H](COc2ccc(F)cc2C#N)[C@H]1c1ccc(S(N)(=O)=O)cc1 (single isomer, unassigned) [Exp. 28] :: 3100

Record EC50 for all entries; do not skip any.
1. Cc1cc(F)ccc1OC[C@H]1[C@H](c2ccc(NS(C)(=O)=O)cc2)C1(C)C (single isomer, unassigned) [Exp. 7]
2. COc1ccc(OC[C@@H]2C[C@H]2c2ccc(S(N)(=O)=O)cc2)c(OC)n1 (single isomer, unassigned) [Exp. 39]
3. NS(=O)(=O)c1ccc([C@@H]2C[C@H]2COc2ccc(F)cc2C(F)(F)F)cc1 (single isomer, unassigned) [Exp. 38]
4. Cc1ccc(OC[C@H]2[C@H](c3ccc(S(N)(=O)=O)cc3)C2(C)C)cn1 (single isomer, unassigned) [Exp. 33]
5. COc1ccccc1CC[C@@H]1[C@@H](c2ccc(S(N)(=O)=O)cc2)C1(C)C (single isomer, unassigned) [Exp. 48]

**A:**
1. 1050
2. 5360
3. 1140
4. 546
5. 612
